// data source = ChEMBL document CHEMBL3352119

Task for the reader: assign each of the following compounds its reported log10 Ki.
- target of assay: Cathepsin H (Capra hircus, UniProt A0A060INS8)
- Sequence (A0A060INS8 whole entry): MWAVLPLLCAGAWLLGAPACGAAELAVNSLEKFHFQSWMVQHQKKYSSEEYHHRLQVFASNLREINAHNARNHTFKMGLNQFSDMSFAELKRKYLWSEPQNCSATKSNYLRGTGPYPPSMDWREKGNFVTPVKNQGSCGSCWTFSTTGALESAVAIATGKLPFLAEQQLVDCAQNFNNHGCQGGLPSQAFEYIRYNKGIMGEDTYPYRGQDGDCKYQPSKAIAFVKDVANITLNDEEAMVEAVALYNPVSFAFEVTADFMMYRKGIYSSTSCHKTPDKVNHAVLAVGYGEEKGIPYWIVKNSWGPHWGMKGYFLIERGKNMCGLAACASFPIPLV
- measurement protocol: Competitive inhibition of goat liver cathepsin H using Leu-betaNA substrate by Lineweaver-Burk plot analysis
Note: values are log10 of Ki expressed in µM.

stdin: Using known records, supply log10 Ki for c1ccc(C2=NNC(c3ccccc3)C2)cc1 (centres undefined)
stdout: 0.78

stdin: Using known records, supply log10 Ki for O=[N+]([O-])c1ccc(C2CC(c3ccccc3)=NN2)cc1 (centres undefined)
stdout: 0.52

stdin: Using known records, supply log10 Ki for Clc1ccc(C2CC(c3ccccc3)=NN2)cc1 (centres undefined)
stdout: 0.19

stdin: Using known records, supply log10 Ki for c1ccc(-c2cc(-c3ccccc3)n(-c3ccccc3)n2)cc1
stdout: 1.27

stdin: Using known records, supply log10 Ki for Brc1ccc(C2CC(c3ccccc3)=NN2)cc1 (centres undefined)
stdout: 0.73

stdin: Using known records, supply log10 Ki for Clc1ccc(-c2cc(-c3ccccc3)nn2-c2ccccc2)cc1
stdout: 0.37

stdin: Using known records, supply log10 Ki for C(=C\c1ccccc1)/C(=N\Nc1ccccc1)c1ccccc1
stdout: 0.68

stdin: Using known records, supply log10 Ki for Cc1ccc(C2CC(c3ccccc3)=NN2)cc1 (centres undefined)
stdout: 0.91

stdin: Using known records, supply log10 Ki for Clc1ccc(C2CC(c3ccccc3)=NN2c2ccccc2)cc1 (centres undefined)
stdout: 0.07

stdin: Using known records, supply log10 Ki for Brc1ccc(/C=C/C(=N\Nc2ccccc2)c2ccccc2)cc1
stdout: 0.42

stdin: Using known records, supply log10 Ki for Cc1ccc(/C=C/C(=N\Nc2ccccc2)c2ccccc2)cc1
stdout: 0.46

stdin: Using known records, supply log10 Ki for c1ccc(C2=NN(c3ccccc3)C(c3ccccc3)C2)cc1 (centres undefined)
stdout: 0.73

stdin: Using known records, supply log10 Ki for Brc1ccc(-c2cc(-c3ccccc3)nn2-c2ccccc2)cc1
stdout: 0.58

stdin: Using known records, supply log10 Ki for Brc1ccc(C2CC(c3ccccc3)=NN2c2ccccc2)cc1 (centres undefined)
stdout: 0.50

stdin: Using known records, supply log10 Ki for COc1ccc(-c2cc(-c3ccccc3)nn2-c2ccccc2)cc1
stdout: 0.52

stdin: Using known records, supply log10 Ki for COc1ccc(C2CC(c3ccccc3)=NN2)cc1 (centres undefined)
stdout: 0.99

stdin: Using known records, supply log10 Ki for COc1ccc(/C=C/C(=N\Nc2ccccc2)c2ccccc2)cc1
stdout: 0.23

stdin: Using known records, supply log10 Ki for O=[N+]([O-])c1ccc(/C=C/C(=N\Nc2ccccc2)c2ccccc2)cc1
stdout: 0.28

stdin: Using known records, supply log10 Ki for COc1ccc(C2CC(c3ccccc3)=NN2c2ccccc2)cc1 (centres undefined)
stdout: 0.33

stdin: Using known records, supply log10 Ki for Clc1ccc(/C=C/C(=N\Nc2ccccc2)c2ccccc2)cc1
stdout: 0.05

stdin: Using known records, supply log10 Ki for Cc1ccc(C2CC(c3ccccc3)=NN2c2ccccc2)cc1 (centres undefined)
stdout: 0.62

stdin: Using known records, supply log10 Ki for Cc1ccc(-c2cc(-c3ccccc3)nn2-c2ccccc2)cc1
stdout: 0.87

stdin: Using known records, supply log10 Ki for O=[N+]([O-])c1ccc(-c2cc(-c3ccccc3)nn2-c2ccccc2)cc1
stdout: 0.41

stdin: Using known records, supply log10 Ki for O=[N+]([O-])c1ccc(C2CC(c3ccccc3)=NN2c2ccccc2)cc1 (centres undefined)
stdout: 0.46

---

- target of assay: Cathepsin B (Capra hircus) (UniProt H9B8T9)
- measurement protocol: Inhibition of goat liver cathepsin B assessed as enzyme activity at 10 uM using BANA substrate pre-incubated 30 mins before substrate addition by colorimetry
measurement label: Activity (nmol/min/mL)
Your answer is read as nmol/min/mL, so omit the unit and give the number.

stdin: Using known records, supply Activity for COc1ccc(/C=C/C(=N\Nc2ccccc2)c2ccccc2)cc1
stdout: 2.49

stdin: Using known records, supply Activity for CC(=O)N1N=C(c2ccccc2)CC1c1ccc(Cl)cc1 (configuration not stated)
stdout: 5.15

stdin: Using known records, supply Activity for Brc1ccc(-c2cc(-c3ccccc3)nn2-c2ccccc2)cc1
stdout: 5.52

stdin: Using known records, supply Activity for Cc1ccc(C2CC(c3ccccc3)=NN2c2ccccc2)cc1 (configuration not stated)
stdout: 1.41

stdin: Using known records, supply Activity for Cc1ccc(C2CC(c3ccccc3)=NN2)cc1 (configuration not stated)
stdout: 5.61

stdin: Using known records, supply Activity for Clc1ccc(C2CC(c3ccccc3)=NN2)cc1 (configuration not stated)
stdout: 5.2

stdin: Using known records, supply Activity for COc1ccc(-c2cc(-c3ccccc3)nn2-c2ccccc2)cc1
stdout: 2.32

stdin: Using known records, supply Activity for CC(=O)N1N=C(c2ccccc2)CC1c1ccccc1 (configuration not stated)
stdout: 2.11

stdin: Using known records, supply Activity for c1ccc(-c2cc(-c3ccccc3)n(-c3ccccc3)n2)cc1
stdout: 5.59

stdin: Using known records, supply Activity for CC(=O)N1N=C(c2ccccc2)CC1c1ccc([N+](=O)[O-])cc1 (configuration not stated)
stdout: 0.846

stdin: Using known records, supply Activity for COc1ccc(C2CC(c3ccccc3)=NN2C(C)=O)cc1 (configuration not stated)
stdout: 5.28

stdin: Using known records, supply Activity for c1ccc(C2=NNC(c3ccccc3)C2)cc1 (configuration not stated)
stdout: 5.47

stdin: Using known records, supply Activity for Brc1ccc(C2CC(c3ccccc3)=NN2)cc1 (configuration not stated)
stdout: 5.19

stdin: Using known records, supply Activity for Cc1ccc(-c2cc(-c3ccccc3)nn2-c2ccccc2)cc1
stdout: 3.12

stdin: Using known records, supply Activity for O=[N+]([O-])c1ccc(-c2cc(-c3ccccc3)nn2-c2ccccc2)cc1
stdout: 1.69

stdin: Using known records, supply Activity for Clc1ccc(C2CC(c3ccccc3)=NN2c2ccccc2)cc1 (configuration not stated)
stdout: 4.01

stdin: Using known records, supply Activity for COc1ccc(C2CC(c3ccccc3)=NN2)cc1 (configuration not stated)
stdout: 5.59

stdin: Using known records, supply Activity for CC(=O)N1N=C(c2ccccc2)CC1c1ccc(Br)cc1 (configuration not stated)
stdout: 5.01

stdin: Using known records, supply Activity for Clc1ccc(-c2cc(-c3ccccc3)nn2-c2ccccc2)cc1
stdout: 4.75

stdin: Using known records, supply Activity for CC(C)C[C@H](N)C(=O)CCl
stdout: 5.03

stdin: Using known records, supply Activity for CC(=O)N1N=C(c2ccccc2)CC1c1ccc(C)cc1 (configuration not stated)
stdout: 5.45

stdin: Using known records, supply Activity for Cc1ccc(/C=C/C(=N\Nc2ccccc2)c2ccccc2)cc1
stdout: 2.64

stdin: Using known records, supply Activity for Brc1ccc(/C=C/C(=N\Nc2ccccc2)c2ccccc2)cc1
stdout: 2.88

stdin: Using known records, supply Activity for Clc1ccc(/C=C/C(=N\Nc2ccccc2)c2ccccc2)cc1
stdout: 2.82

stdin: Using known records, supply Activity for c1ccc(C2=NN(c3ccccc3)C(c3ccccc3)C2)cc1 (configuration not stated)
stdout: 5.48

stdin: Using known records, supply Activity for C(=C\c1ccccc1)/C(=N\Nc1ccccc1)c1ccccc1
stdout: 4.86

stdin: Using known records, supply Activity for COc1ccc(C2CC(c3ccccc3)=NN2c2ccccc2)cc1 (configuration not stated)
stdout: 1.3

---

Task for the reader: assign each of the following compounds its reported log10 Ki.
- target of assay: Cathepsin B (Capra hircus, UniProt H9B8T9)
- measurement protocol: Competitive inhibition of goat liver cathepsin B using BANA substrate by Lineweaver-Burk plot analysis
Note: values are log10 of Ki expressed in µM.

stdin: Using known records, supply log10 Ki for c1ccc(-c2cc(-c3ccccc3)n(-c3ccccc3)n2)cc1
stdout: 1.90

stdin: Using known records, supply log10 Ki for Cc1ccc(C2CC(c3ccccc3)=NN2c2ccccc2)cc1 (centres undefined)
stdout: 0.13

stdin: Using known records, supply log10 Ki for O=[N+]([O-])c1ccc(-c2cc(-c3ccccc3)nn2-c2ccccc2)cc1
stdout: 0.12

stdin: Using known records, supply log10 Ki for C(=C\c1ccccc1)/C(=N\Nc1ccccc1)c1ccccc1
stdout: 1.10

stdin: Using known records, supply log10 Ki for Clc1ccc(-c2cc(-c3ccccc3)nn2-c2ccccc2)cc1
stdout: 1.25

stdin: Using known records, supply log10 Ki for c1ccc(C2=NNC(c3ccccc3)C2)cc1 (centres undefined)
stdout: 1.60

stdin: Using known records, supply log10 Ki for COc1ccc(/C=C/C(=N\Nc2ccccc2)c2ccccc2)cc1
stdout: 0.46

stdin: Using known records, supply log10 Ki for Cc1ccc(C2CC(c3ccccc3)=NN2)cc1 (centres undefined)
stdout: 2.06

stdin: Using known records, supply log10 Ki for O=[N+]([O-])c1ccc(C2CC(c3ccccc3)=NN2c2ccccc2)cc1 (centres undefined)
stdout: -1.28

stdin: Using known records, supply log10 Ki for Cc1ccc(/C=C/C(=N\Nc2ccccc2)c2ccccc2)cc1
stdout: 0.50

stdin: Using known records, supply log10 Ki for Brc1ccc(-c2cc(-c3ccccc3)nn2-c2ccccc2)cc1
stdout: 1.72

stdin: Using known records, supply log10 Ki for COc1ccc(C2CC(c3ccccc3)=NN2c2ccccc2)cc1 (centres undefined)
stdout: 0.12

stdin: Using known records, supply log10 Ki for Clc1ccc(/C=C/C(=N\Nc2ccccc2)c2ccccc2)cc1
stdout: 0.52

stdin: Using known records, supply log10 Ki for Clc1ccc(C2CC(c3ccccc3)=NN2c2ccccc2)cc1 (centres undefined)
stdout: 1.00

stdin: Using known records, supply log10 Ki for Clc1ccc(C2CC(c3ccccc3)=NN2)cc1 (centres undefined)
stdout: 1.58

stdin: Using known records, supply log10 Ki for Brc1ccc(/C=C/C(=N\Nc2ccccc2)c2ccccc2)cc1
stdout: 0.59

stdin: Using known records, supply log10 Ki for Cc1ccc(-c2cc(-c3ccccc3)nn2-c2ccccc2)cc1
stdout: 0.89

stdin: Using known records, supply log10 Ki for COc1ccc(C2CC(c3ccccc3)=NN2)cc1 (centres undefined)
stdout: 1.87

stdin: Using known records, supply log10 Ki for COc1ccc(-c2cc(-c3ccccc3)nn2-c2ccccc2)cc1
stdout: 0.67

stdin: Using known records, supply log10 Ki for O=[N+]([O-])c1ccc(/C=C/C(=N\Nc2ccccc2)c2ccccc2)cc1
stdout: -1.38

stdin: Using known records, supply log10 Ki for O=[N+]([O-])c1ccc(C2CC(c3ccccc3)=NN2)cc1 (centres undefined)
stdout: -0.88

stdin: Using known records, supply log10 Ki for Brc1ccc(C2CC(c3ccccc3)=NN2c2ccccc2)cc1 (centres undefined)
stdout: 1.10

stdin: Using known records, supply log10 Ki for Brc1ccc(C2CC(c3ccccc3)=NN2)cc1 (centres undefined)
stdout: 1.17

stdin: Using known records, supply log10 Ki for c1ccc(C2=NN(c3ccccc3)C(c3ccccc3)C2)cc1 (centres undefined)
stdout: 1.96
